FYI, the data here is from ChEMBL document CHEMBL4145505.

- testTarget: Trace amine-associated receptor 1 (Homo sapiens, UniProt Q96RJ0)
- Sequence (Q96RJ0 whole entry): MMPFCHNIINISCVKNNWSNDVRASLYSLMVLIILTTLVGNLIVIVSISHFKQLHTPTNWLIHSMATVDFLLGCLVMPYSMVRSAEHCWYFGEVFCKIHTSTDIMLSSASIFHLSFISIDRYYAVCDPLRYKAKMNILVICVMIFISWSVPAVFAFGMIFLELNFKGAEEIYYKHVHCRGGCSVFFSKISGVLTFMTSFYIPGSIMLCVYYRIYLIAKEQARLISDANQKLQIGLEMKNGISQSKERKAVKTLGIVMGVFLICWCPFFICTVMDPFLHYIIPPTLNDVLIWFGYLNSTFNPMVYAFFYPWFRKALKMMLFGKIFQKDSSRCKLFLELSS
- testProtocol: Agonist activity at human TAAR1 expressed in HEK293 cells assessed as cAMP accumulation after 20 mins by BRET assay
- Assay type: functional, cell-based
What EC50 was measured for each of the following?
Numbers only, in µM.

COc1ccc(N2CCN(/C(N)=N/C(=N)N)CC2)cc1: 11.4

Now look at this entry.
So what's the measured EC50 for this one? N=C(N)NC(=N)N1CCN(c2ccccc2)CC1 1.38

---

- testTarget: Trace amine-associated receptor 1 (Mus musculus, UniProt Q923Y8)
- Sequence (Q923Y8 whole entry): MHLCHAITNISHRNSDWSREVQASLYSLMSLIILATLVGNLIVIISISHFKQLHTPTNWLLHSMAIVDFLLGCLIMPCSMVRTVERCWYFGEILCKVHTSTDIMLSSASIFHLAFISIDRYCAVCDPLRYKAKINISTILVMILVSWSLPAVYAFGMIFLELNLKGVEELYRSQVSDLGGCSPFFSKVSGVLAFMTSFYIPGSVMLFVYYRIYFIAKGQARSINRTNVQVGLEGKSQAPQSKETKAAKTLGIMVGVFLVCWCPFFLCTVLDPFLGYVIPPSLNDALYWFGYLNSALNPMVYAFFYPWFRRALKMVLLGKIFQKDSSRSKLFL
- testProtocol: Agonist activity at mouse TAAR1 expressed in HEK293 cells assessed as cAMP accumulation after 20 mins by BRET assay
Assignment: determine reported EC50 for the given compounds.
Numbers only, in nM.

These solved cases illustrate the format of a correct answer.
NCCc1ccccc1: 120
N=C(N)/N=C(\N)N1CCN(c2ncccn2)CC1: 9000
N=C(N)/N=C(\N)N1CCN(c2ccccc2Cl)CC1: 2660

For N=C(N)NC(=N)N1CCN(c2ccccc2)CC1 , what is its reported EC50? 2380
